B1: LINE1-full (parent)
chain: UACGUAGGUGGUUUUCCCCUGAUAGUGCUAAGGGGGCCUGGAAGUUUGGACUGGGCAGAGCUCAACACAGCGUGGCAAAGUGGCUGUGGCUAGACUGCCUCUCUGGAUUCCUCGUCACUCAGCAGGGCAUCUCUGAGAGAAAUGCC

Variants of: B1
Experiment: self-cleavage, relative activity (ratio to wild type); higher = more cleavage; in vitro, sequencing; the parent is a self-cleaving ribozyme
# binarize self-cleavage: threshold 1 inclusive, high side Criterion met, low side Criterion not met

Please review the following examples before continuing.
1) U87A U96A	Criterion not met
2) U102A U115G	Criterion met

Proceed to the following item.
Exercise: Identify whether the reported self-cleavage of the following variant is 1 or greater: U96C U102A
Key: Criterion not met

These entries and their values trace back to the RNAGym collection of RNA variant scans (doi:10.7554/elife.90254).
